All values here come from patent US20250197451A1.

# Lookup of reported Intensity (%) keyed by entry
# assayed.target: T1, biotin-labelled EZH2 protein (UniProt Q15910 1-746, limits assumed, biotin label (EZ-link NHS-PEO4-Biotinylation kit))
# T1 construct: Probe in solution (1 ug/ml) on the KDM2B peptide microarray; also called NHS-PEO4-Biotinylation-labelled EZH2 protein; recombinant protein
# T1 sequence (Q15910 whole entry): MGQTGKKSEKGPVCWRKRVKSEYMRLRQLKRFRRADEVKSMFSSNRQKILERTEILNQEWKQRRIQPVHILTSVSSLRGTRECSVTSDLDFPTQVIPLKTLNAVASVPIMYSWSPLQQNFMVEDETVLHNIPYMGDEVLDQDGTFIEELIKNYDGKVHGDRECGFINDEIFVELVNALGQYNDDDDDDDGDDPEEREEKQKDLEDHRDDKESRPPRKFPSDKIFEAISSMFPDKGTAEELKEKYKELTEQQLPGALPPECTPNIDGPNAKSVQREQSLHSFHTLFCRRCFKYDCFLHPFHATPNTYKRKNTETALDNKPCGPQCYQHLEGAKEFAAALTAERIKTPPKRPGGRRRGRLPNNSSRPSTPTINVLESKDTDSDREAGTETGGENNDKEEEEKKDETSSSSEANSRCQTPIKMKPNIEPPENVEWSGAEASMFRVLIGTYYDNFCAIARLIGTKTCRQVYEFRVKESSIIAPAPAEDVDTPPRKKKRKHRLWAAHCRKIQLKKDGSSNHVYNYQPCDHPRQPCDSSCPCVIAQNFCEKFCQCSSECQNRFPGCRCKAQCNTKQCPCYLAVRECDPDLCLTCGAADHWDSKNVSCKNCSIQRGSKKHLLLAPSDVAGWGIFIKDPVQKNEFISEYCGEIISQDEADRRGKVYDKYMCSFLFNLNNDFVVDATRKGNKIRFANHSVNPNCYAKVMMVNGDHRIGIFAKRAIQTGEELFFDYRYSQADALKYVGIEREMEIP
# method.description: KDM2B peptide array probed with biotin-EZH2 1 ug/ml, SA-HRP/ECL;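 note: 100% is the highest background-corrected spot optical density on the membrane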;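 note: Background-corrected optical density of each spot on the membrane, given as percent of the brightest spot (100%), color developed for 5 minutes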
The answer is to be given in %; state only the numeric part.

Completed entries (count: 3):
                          binder  assay_value
0   KDGLGIKMPDPDFTV [peptide 23]            0
1  RTLDVQWVEGLKDAQ [peptide 236]          2.1
2  LKPGKEDKLFRKKRR [peptide 172]            0

// field: Intensity (%); key: HEIQRTENSLANENQ [peptide 192] ; value = 0.19

// field: Intensity (%); key: WIAVSALCSSSCPLL [peptide 233] ; value = 34.8

// field: Intensity (%); key: QKMNRDNKEGQEPAK [peptide 151] ; value = 100

// field: Intensity (%); key: CNEIIHPGCLKIKES [peptide 139] ; value = 85.1
